Values compiled from patent US9980943B2.

Tested on: β-galactosidase in CMV-LacZ C2C12 myotubes
protocol_notes: CMV-LacZ secondary screen in C2C12 myotubes (β-Gal stabilizing assay)
Type: cell-based, mouse
stated_conditions: 5 uM; C2C12 CMV-LacZ myotubes; fold relative to DMSO
Readings of CMV-LACZ in Myotubes, signal relative to DMSO for the listed compounds
property_name: CMV-LACZ in Myotubes, signal relative to DMSO

{"columns": ["compound", "target_desc", "assay_value"],
 "data": [
  ["Cc1cc(C)cc(OCC(=O)N/N=C/c2ccccn2)c1", "β-galactosidase in CMV-LacZ C2C12 myotubes", 0.9690],
  ["CC(=O)C1=C(C)Nc2ncnn2C1c1ccc(C)cc1 (stereo not shown)", "β-galactosidase in CMV-LacZ C2C12 myotubes", 1.0456],
  ["O=C1CCc2cc(S(=O)(=O)Nc3ccc(C(F)(F)F)cc3)cc3c2N1CC3", "β-galactosidase in CMV-LacZ C2C12 myotubes", 0.9582],
  ["C#CC1(O)CCC2C3CCC4=C/C(=N/OCC(=O)NCC(=O)NC(C(=O)O)C(C)C)CC[C@]4(C)C3CC[C@@]21C (stereo partly shown)", "β-galactosidase in CMV-LacZ C2C12 myotubes", 1.0856]
]}

* * *

Tested on: α7 integrin (LacZ reporter in α7βgal+/− myoblasts)
protocol_notes: Myoblast α7+/LacZ integrin FDG assay (Burkin assay in myoblasts, 96-well)
Type: cell-based, mouse
stated_conditions: 10 uM; α7+/LacZ myoblasts, 96-well
property_name: Burkin Assay in Myoblasts, signal relative to DMSO

{"columns": ["compound", "assay_value"],
 "data": [
  ["CCCCNC(=O)CSc1nnc(Cc2ccc(Cl)c(Cl)c2)c(=O)[nH]1 [MLS001177259-01]", 0.9165],
  ["Cc1ccc(NS(=O)(=O)c2cccc(C(=O)O)c2)cc1S(=O)(=O)N1CCOCC1 [MLS000393966-01]", 1.076],
  ["COc1ccc2oc(C[S+]([O-])c3ccccc3)c(C(=O)O)c2c1 (centres unmarked) [MLS001208858-01]", 0.8759],
  ["O=C1CCC(C(=O)N2CCSCC2)CN1Cc1ccc(Cl)cc1 (centres unmarked) [MLS001090787-01]", 1.46],
  ["COc1ccccc1C(=O)OCc1ccc2sc(C)nc2c1 [MLS001006798-01]", 1.008],
  ["Cc1ccc(NCc2nnc(SCC(=O)Nc3nnc(C)s3)n2C)cc1 [MLS000688437-01]", 0.9077],
  ["CC(=O)Nc1ccc(N(C(=O)c2cnccn2)C(C(=O)NC2CCCCC2)c2ccc(F)cc2)cc1 (centres unmarked) [MLS001225507-01]", 0.8292],
  ["Cc1nnc(-c2ccc(N3CCOCC3)c([N+](=O)[O-])c2)o1 [MLS001359861-01]", 0.9324]
]}

* * *

Test system: β-galactosidase in CMV-LacZ C2C12 myoblasts
protocol_notes: CMV-LacZ secondary screen in C2C12 myoblasts (β-Gal stabilizing assay)
Type: cell-based, mouse
stated_conditions: 1 uM; CMV-LacZ C2C12 myoblasts
Excerpt: In order to determine compounds that acted to stabilize β-gal in myogenic cells, a CMV-LacZ C2C12 cell line was used in a secondary screen. The EGFP gene from the pEGFP (Clontech) vector was replaced by LACZ PCR product with digests of the vector/PCR product performed using EcoRI (NEB) and NotI (NEB) and ligated using T4 DNA Ligase (NEB) following standard procedures to produce the CMV-LACZ vector. […]
property_name: CMV-LACZ in Myoblasts (β-galactosidase activity relative to DMSO)

{"columns": ["compound", "assay_value"],
 "data": [
  ["CCOC(=O)C1=C(CC)Nc2ccccc2N=C1NC(=O)c1ccc(OC)c(S(=O)(=O)N2CCCCC2C)c1 (stereo not shown)", 0.9103],
  ["CCNC(=O)C(=O)Nc1cc2c3c(c1)CCN3C(=O)CC2", 0.7750],
  ["CC(NC(=O)c1ccc(C(C)(C)C)cc1)C(c1cccs1)N1CCOCC1 (stereo not shown)", 1.1289],
  ["O=C(CSc1nnc(COc2ccc(Br)cc2)o1)NC1CCCCC1", 1.2686]
]}

* * *

System: α7 integrin (LacZ reporter in α7+/LacZ myotubes)
protocol_notes: Myotube α7 integrin FDG assay (Burkin assay in myotubes, 96-well)
Format: cell-based, mouse
stated_conditions: myotubes, 0.5 uM
property_name: Burkin Assay in Myotubes, α7 integrin LacZ reporter signal relative to DMSO

{"columns": ["molecule", "assay_value"],
 "data": [
  ["N#Cc1ccc(OCC(O)CS(=O)(=O)c2ccccc2)cc1 (stereo not drawn)", 0.9148],
  ["Cc1ccc(NC(=O)COc2ccccc2CNC(C)(C)CC(C)(C)C)cc1", 1.087],
  ["O=C(O)CC1(c2ccccc2)C(=O)c2ccccc2C1=O", 0.9131],
  ["COc1ccc(CNC(=O)C2CCCN(S(=O)(=O)c3c(C)noc3/C=C/N(C)C)C2)cc1 (stereo not drawn)", 1.16],
  ["Cc1ccsc1CN(C)CC(=O)Nc1ccc([N+](=O)[O-])cc1Cl", 0.9496],
  ["COCCSc1ccccc1C(=O)Nc1cc(C)cc(C)c1", 0.8552],
  ["O=C(O)C(Cc1ccc(O)cc1)N1C(=O)c2ccccc2C1=O (stereo not drawn)", 1.068],
  ["CC(C)(C)c1csc(NC(=O)c2cccnc2)n1", 0.8982],
  ["O=C(c1cccs1)N(Cc1ccco1)c1nc(-c2ccc(F)cc2)cs1", 1.042]
]}

* * *

System: α7 integrin (LacZ reporter in α7+/LacZ myotubes)
protocol_notes: Myotube α7 integrin FDG assay (Burkin assay in myotubes, 96-well)
Assay type: cell-based, mouse
stated_conditions: Mus musculus, Myotube; myotubes, 40 uM; read-out: Burkin Assay in Myotubes, α7 integrin LacZ reporter signal relative to DMSO
Readings of fold induction at 40 µM for the listed molecules
property_name: fold induction at 40 µM

{"columns": ["molecule", "assay_value"],
 "data": [
  ["O=c1nc(C2CCN(S(=O)(=O)c3ccc4c(c3)OCCO4)CC2)nc2n(Cc3c(F)cccc3Cl)[nH]nc1-2 [MLS001223482-01]", 0.967],
  ["COc1ccc(CCNC(=O)c2nn(C)c3c2CS(=O)(=O)c2ccccc2-3)cc1OC [MLS001117140-01]", 1.06],
  ["Nc1nccc(-c2ccc(-n3cnc4ccccc43)cc2)n1 [MLS000763405-01]", 1.38],
  ["COc1ccc(-n2c(C)c(C(C)=O)c3cc(OC(C)=O)ccc32)cc1 [MLS001212998-01]", 1.05]
]}

* * *

Tested on: β-galactosidase in CMV-LacZ C2C12 myoblasts
protocol_notes: CMV-LacZ secondary screen in C2C12 myoblasts (β-Gal stabilizing assay)
Assay type: cell-based, mouse
stated_conditions: 0.5 uM; CMV-LacZ C2C12 myoblasts
Readings of CMV-LACZ in Myoblasts (β-galactosidase activity relative to DMSO) for the listed compounds
property_name: CMV-LACZ in Myoblasts (β-galactosidase activity relative to DMSO)

{"columns": ["compound", "assay_value"],
 "data": [
  ["CCNC(=O)C(=O)Nc1cc2c3c(c1)CCN3C(=O)CC2", 1.0342],
  ["Cc1cccc(NCC(=O)N/N=C\\c2ccccn2)c1", 1.0338],
  ["CCCn1c(-c2cc(OC)c(OC)c(OC)c2)nc2c1c(=O)[nH]c(=O)n2Cc1ccccc1", 1.2750],
  ["CC(C(=O)Nc1ccc(C#N)cc1)N(C)CC(=O)Nc1cccc(F)c1 (centres unmarked)", 0.7590],
  ["c1ccc(-c2nn[nH]n2)nc1", 1.2748]
]}

* * *

System: β-galactosidase in CMV-LacZ C2C12 myotubes
protocol_notes: CMV-LacZ secondary screen in C2C12 myotubes (β-Gal stabilizing assay)
Format: cell-based, mouse
stated_conditions: 40 uM; CMV-LacZ C2C12 myotubes; 96-well format
Readings of CMV-LACZ in Myotubes (β-galactosidase activity relative to DMSO) for the listed compounds
property_name: CMV-LACZ in Myotubes (β-galactosidase activity relative to DMSO)

{"columns": ["compound", "target_desc", "assay_value"],
 "data": [
  ["Cc1ccc(-c2onc3ccc(C(=O)/C=C/N(C)C)cc23)cc1", "β-galactosidase in CMV-LacZ C2C12 myotubes", 0.5227],
  ["NS(=O)(=O)c1ccc(NC(=O)c2cc(-c3ccccc3O)n[nH]2)cc1", "β-galactosidase in CMV-LacZ C2C12 myotubes", 0.9022],
  ["C[C@H]1CNC(=O)c2c(C(=O)Nc3ccc(CNC(=O)OC(C)(C)C)cc3)ncn21", "β-galactosidase in CMV-LacZ C2C12 myotubes", 0.7123],
  ["Cc1cccc(OCc2nc(C#N)c(N3CCCC3)o2)c1", "β-galactosidase in CMV-LacZ C2C12 myotubes", 0.9304],
  ["COc1ccc(C(=O)N/C(=C/c2cccnc2)C(=O)N2CCN(C)CC2)cc1OC", "β-galactosidase in CMV-LacZ C2C12 myotubes", 1.075],
  ["O=C(c1ccc(Cl)c(S(=O)(=O)N2CCCCC2)c1)N1CCN(Cc2ccccc2)CC1", "β-galactosidase in CMV-LacZ C2C12 myotubes", 0.6425],
  ["COc1ccccc1OCC(=O)Nc1cc2c(cc1C(=O)O)OCCCO2", "β-galactosidase in CMV-LacZ C2C12 myotubes", 1.118],
  ["Cc1nnc(NC(=O)CSc2nnc(CCNC(=O)c3ccccc3F)n2C)s1", "β-galactosidase in CMV-LacZ C2C12 myotubes", 0.9127],
  ["CC(=O)Nc1ccc(NC(=O)[C@@H](NC(=O)c2cccc(C)c2)C(C)C)cc1", "β-galactosidase in CMV-LacZ C2C12 myotubes", 1.046],
  ["CSc1ncccc1C(=O)OCC(=O)c1cc(C)n(C)c1C", "β-galactosidase in CMV-LacZ C2C12 myotubes", 0.9307],
  ["O=C(Nc1ccccc1)Nc1ccc(Cl)c(S(=O)(=O)N2CCOCC2)c1", "β-galactosidase in CMV-LacZ C2C12 myotubes", 0.4092],
  ["CC(=O)c1cccc(NC(=O)C(=O)Nc2cccc3ccccc23)c1", "β-galactosidase in CMV-LacZ C2C12 myotubes", 0.97],
  ["C/C(=N/OC(=O)CC(C)C)c1cc(-c2ccc(Cl)cc2)no1", "β-galactosidase in CMV-LacZ C2C12 myotubes", 0.7917],
  ["O=c1[nH]c(C2CCCN(S(=O)(=O)c3ccccc3)C2)nc2c1nnn2Cc1cccc(Cl)c1 (centres unmarked)", "β-galactosidase in CMV-LacZ C2C12 myotubes", 0.3604]
]}
